Item-by-item account of pKd
- measurement.target: T1, monomeric recombinant human Notch3 extracellular domain (containing EGF like domains 1-11) fusion protein (human, UniProt Q9UM47 40-467)
- T1 construct: domain: EGF like domains 1-11; also called monomeric rhNotch3
- T1 sequence (looked up): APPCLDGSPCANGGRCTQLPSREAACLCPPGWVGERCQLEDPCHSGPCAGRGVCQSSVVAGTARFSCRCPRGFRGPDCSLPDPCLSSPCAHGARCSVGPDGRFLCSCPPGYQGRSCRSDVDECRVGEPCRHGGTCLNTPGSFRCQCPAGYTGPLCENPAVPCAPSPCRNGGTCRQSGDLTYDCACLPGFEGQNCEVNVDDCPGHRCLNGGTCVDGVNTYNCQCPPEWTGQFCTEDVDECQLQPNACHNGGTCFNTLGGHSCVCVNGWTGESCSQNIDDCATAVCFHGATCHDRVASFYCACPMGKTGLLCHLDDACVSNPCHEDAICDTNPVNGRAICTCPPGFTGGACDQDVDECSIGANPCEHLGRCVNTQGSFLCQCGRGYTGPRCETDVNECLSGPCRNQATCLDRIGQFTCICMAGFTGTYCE
- assay: SPR BIAcore T100, monomeric rhNotch3 analyte, 37 C, average of Table 16 and additional measurements
A value of pKd is the negative decimal logarithm of a concentration given in moles per litre.

Below: 3 binders and their reported pKd.
[
  {
    "binder": "Hu4F11-80 (antibody, human IgG1, kappa, V domains shown, Humanized, human IgG1 kappa; Hv3-23 S31H T62S heavy + Kv2D-29 N28Q kappa) VH: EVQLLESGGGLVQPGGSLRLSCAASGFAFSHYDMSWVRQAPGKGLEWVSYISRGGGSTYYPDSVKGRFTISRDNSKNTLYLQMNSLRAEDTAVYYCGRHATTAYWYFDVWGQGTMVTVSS VL: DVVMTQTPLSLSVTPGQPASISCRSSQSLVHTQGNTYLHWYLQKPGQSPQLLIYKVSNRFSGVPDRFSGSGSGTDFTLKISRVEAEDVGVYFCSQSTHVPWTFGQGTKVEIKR",
    "pKd": 7.85
  },
  {
    "binder": "Hu4F11-72 (antibody, human IgG1, kappa, V domains shown, Humanized, human IgG1 kappa; Hv3-23 S31H T62S heavy + Kv2D-29 N28H kappa) VH: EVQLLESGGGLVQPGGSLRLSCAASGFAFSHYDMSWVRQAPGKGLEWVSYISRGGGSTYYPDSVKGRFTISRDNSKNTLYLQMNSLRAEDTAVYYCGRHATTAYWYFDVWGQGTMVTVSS VL: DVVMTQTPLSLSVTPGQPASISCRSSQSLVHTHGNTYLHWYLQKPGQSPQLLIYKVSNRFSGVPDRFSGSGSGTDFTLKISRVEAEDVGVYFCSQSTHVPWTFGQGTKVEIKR",
    "pKd": 8.15
  },
  {
    "binder": "Hu4F11-69 (antibody, human IgG1, kappa, V domains shown, Humanized, human IgG1 kappa; Hv3-23 A28T S31N T62S heavy + Kv2D-29 N28H kappa) VH: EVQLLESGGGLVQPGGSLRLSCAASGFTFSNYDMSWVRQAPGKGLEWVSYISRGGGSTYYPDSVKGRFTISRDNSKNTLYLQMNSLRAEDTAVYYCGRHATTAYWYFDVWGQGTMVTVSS VL: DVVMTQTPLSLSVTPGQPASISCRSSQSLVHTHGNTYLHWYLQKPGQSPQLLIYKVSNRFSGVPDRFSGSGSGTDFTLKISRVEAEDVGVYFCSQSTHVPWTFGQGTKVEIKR",
    "pKd": 8.07
  }
]

### Prompt Find the recorded pKd belonging to Hu4F11-74 (antibody, human IgG1, kappa, V domains shown, Humanized, human IgG1 kappa; Hv3-23 A28T S31H T62S heavy + Kv2D-29 N28Y kappa) VH: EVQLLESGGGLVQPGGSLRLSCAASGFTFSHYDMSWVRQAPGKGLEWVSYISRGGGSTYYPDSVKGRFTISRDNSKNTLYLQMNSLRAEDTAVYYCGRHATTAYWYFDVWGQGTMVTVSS VL: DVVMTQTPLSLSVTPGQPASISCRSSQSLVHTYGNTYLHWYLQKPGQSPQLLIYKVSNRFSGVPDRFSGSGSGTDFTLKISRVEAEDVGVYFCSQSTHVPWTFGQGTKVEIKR and report it.
### Response 8.00

### Prompt Requested read-out: pKd. Entry: Hu4F11-73 (antibody, human IgG1, kappa, V domains shown, Humanized, human IgG1 kappa; Hv3-23 A28T S31N T62S heavy + Kv2D-29 N28Y kappa) VH: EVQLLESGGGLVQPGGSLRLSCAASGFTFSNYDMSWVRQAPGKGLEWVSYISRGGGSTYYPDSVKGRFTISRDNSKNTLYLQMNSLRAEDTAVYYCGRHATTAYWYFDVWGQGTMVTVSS VL: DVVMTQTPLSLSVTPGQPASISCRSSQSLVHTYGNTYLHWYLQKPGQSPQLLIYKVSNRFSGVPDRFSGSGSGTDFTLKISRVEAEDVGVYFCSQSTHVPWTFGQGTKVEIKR
### Response 7.96
